System: TTR
protocol-description: EC50 and maximum editing in primary human hepatocytes treated with LNP formulated U-depleted Spy Cas9 mRNA and sgRNAs (Tables 19, 21)
Format: cell-based
Set-up: key: % of sequence reads with indels or substitutions over total reads
run-conditions: Table 19, LNP with U-depleted Spy Cas9 mRNA and human specific sgRNAs, dose response
Strand notation (5' to 3'): a small letter for the sugar, then the base; units joined by * are phosphorothioate-linked, units joined directly phosphodiester-linked; [ ] holds rarer units or linkages, { } end groups; capitals alone tell only the bases. m = 2'-O-methyl; r = 2'-OH (RNA)
assay-readout: Max Editing
Lab note: jot the number down without any unit.

molecule | assay-readout | quantitative-readout
G000572: TTR sgRNA modified sequence, Human, SEQ ID No. 113; guide sequence of CR003385 (nucleic acid) guide: mC*mC*mC*rCrUrArCrUrCrCrUrArUrUrCrCrArCrCrArGrUrUrUrUrArGrAmGmCmUmAmGmAmAmAmUmAmGmCrArArGrUrUrArArArArUrArArGrGrCrUrArGrUrCrCrGrUrUrArUrCrAmAmCmUmUmGmAmAmAmAmAmGmUmGmGmCmAmCmCmGmAmGmUmCmGmGmUmGmCmU*mU*mU*mU | Max Editing | 97.94
G000568: TTR sgRNA modified sequence, Human, SEQ ID No. 110; guide sequence of CR003391 (nucleic acid) guide: mG*mG*mC*rUrGrUrCrGrUrCrArCrCrArArUrCrCrCrArGrUrUrUrUrArGrAmGmCmUmAmGmAmAmAmUmAmGmCrArArGrUrUrArArArArUrArArGrGrCrUrArGrUrCrCrGrUrUrArUrCrAmAmCmUmUmGmAmAmAmAmAmGmUmGmGmCmAmCmCmGmAmGmUmCmGmGmUmGmCmU*mU*mU*mU | Max Editing | 95.72

Consider the additional molecule presented here.
Fill in Max Editing for record G000488: TTR sgRNA modified sequence, Human, SEQ ID No. 95; guide sequence of CR003346 (nucleic acid) guide: mA*mA*mA*rGrUrUrCrUrArGrArUrGrCrUrGrUrCrCrGrGrUrUrUrUrArGrAmGmCmUmAmGmAmAmAmUmAmGmCrArArGrUrUrArArArArUrArArGrGrCrUrArGrUrCrCrGrUrUrArUrCrAmAmCmUmUmGmAmAmAmAmAmGmUmGmGmCmAmCmCmGmAmGmUmCmGmGmUmGmCmU*mU*mU*mU
95.83

The measured values listed here are drawn from patent US11795460B2.
